- tgt: HLA-B*39:01
- protocol.notes: IEDB peptide-MHC binding, purified MHC/competitive/fluorescence; filed as Kd, often an IC50 or EC50 that approximates it; bounds were set here for any values at or beyond the usual limits of such assays
- stated.conditions: source organism: Escherichia coli O139:H28 str. E24377A
endpoint.label: Kd (nM)

* REWGWRIPF | 135

----------
- tgt: HLA-A*24:03
- protocol.notes: IEDB peptide-MHC binding, purified MHC/direct/fluorescence; filed as Kd, often an IC50 or EC50 that approximates it; bounds were set here for any values at or beyond the usual limits of such assays
- stated.conditions: source organism: Giardia lamblia ATCC 50803
pKd: −log10 of the molar value.
endpoint.label: pKd

- ATPPSLVHF: 6.82
